# key: entry, value: solubility (mole fraction)
- condition.context: in 2-methoxyethanol, 295.3 K

{"record.smiles": "COc1cc(Cl)c(OC)cc1N", "solubility (mole fraction)": 0.0549}
{"record.smiles": "COc1cc([N+](=O)[O-])c(OC)cc1Cl", "solubility (mole fraction)": 0.00953}

---

- condition.context: in diethylene glycol, 318.2 K
measurement.type: solubility (mole fraction)

{"record.smiles": "COc1ccc(OC)c(N)c1", "experimental.value": 0.14}

---

- condition.context: in 2-ethoxyethanol, 295.8 K

{"record.smiles": "COc1cc(Cl)c(OC)cc1N", "solubility (mole fraction)": 0.0453}

---

- condition.context: in 2-methoxyethanol, 312.1 K

{"record.smiles": "COc1cc(Cl)c(OC)cc1N", "solubility (mole fraction)": 0.0884}

---

- condition.context: in 2-methoxyethanol, 292.8 K

{"record.smiles": "COc1ccc(OC)c(N)c1", "solubility (mole fraction)": 0.102}

---

- condition.context: in 2-ethoxyethanol, 283.5 K
measurement.type: solubility (mole fraction)

{"record.smiles": "COc1cc(Cl)c(OC)cc1N", "measurement.type": "solubility (mole fraction)", "experimental.value": 0.0322}

---

- condition.context: in diethylene glycol, 311.9 K

{"record.smiles": "COc1ccc(OC)c(N)c1", "solubility (mole fraction)": 0.0458}

---

- condition.context: in diethylene glycol, 319.5 K

{"record.smiles": "COc1cc([N+](=O)[O-])c(OC)cc1Cl", "solubility (mole fraction)": 0.000876}

---

- condition.context: in 2-methoxyethanol, 284.6 K

{"record.smiles": "COc1ccc(OC)c(N)c1", "solubility (mole fraction)": 0.0617}

---

- condition.context: in 1-methoxy-2-propanol, 320.9 K

{"record.smiles": "COc1cc(Cl)c(OC)cc1N", "solubility (mole fraction)": 0.101}

---

- condition.context: in 2-methoxyethanol, 317.9 K
measurement.type: solubility (mole fraction)

{"record.smiles": "COc1cc([N+](=O)[O-])c(OC)cc1Cl", "experimental.value": 0.0201}

---

- condition.context: in diethylene glycol, 323.7 K

{"record.smiles": "COc1ccc(OC)c(N)c1", "solubility (mole fraction)": 0.216}

---

- condition.context: in 2-ethoxyethanol, 300.3 K

{"record.smiles": "COc1cc(Cl)c(OC)cc1N", "solubility (mole fraction)": 0.0559}

---

- condition.context: in 2-methoxyethanol, 324.2 K
measurement.type: solubility (mole fraction)

{"record.smiles": "COc1cc(Cl)c(OC)cc1N", "measurement.type": "solubility (mole fraction)", "experimental.value": 0.129}

---

- condition.context: in diethylene glycol, 289.1 K
measurement.type: solubility (mole fraction)

{"record.smiles": "COc1ccc(OC)c(N)c1", "measurement.type": "solubility (mole fraction)", "experimental.value": 0.000885}

---

- condition.context: in 2-methoxyethanol, 313.4 K

{"record.smiles": "COc1ccc(OC)c(N)c1", "solubility (mole fraction)": 0.254}

---

- condition.context: in 1-methoxy-2-propanol, 281.6 K

{"record.smiles": "COc1cc(Cl)c(OC)cc1N", "solubility (mole fraction)": 0.0267}

---

- condition.context: in 2-ethoxyethanol, 319.7 K
measurement.type: solubility (mole fraction)

{"record.smiles": "COc1cc(Cl)c(OC)cc1N", "experimental.value": 0.1}

---

- condition.context: in 2-methoxyethanol, 329.8 K
measurement.type: solubility (mole fraction)

{"record.smiles": "COc1cc([N+](=O)[O-])c(OC)cc1Cl", "experimental.value": 0.0335}

---

- condition.context: in diethylene glycol, 320.8 K
measurement.type: solubility (mole fraction)

{"record.smiles": "COc1cc(Cl)c(OC)cc1N", "experimental.value": 0.0584}

---

- condition.context: in diethylene glycol, 293.2 K
measurement.type: solubility (mole fraction)

{"record.smiles": "COc1ccc(OC)c(N)c1", "measurement.type": "solubility (mole fraction)", "experimental.value": 0.00119}

---

- condition.context: in 2-methoxyethanol, 321.7 K
measurement.type: solubility (mole fraction)

{"record.smiles": "COc1cc([N+](=O)[O-])c(OC)cc1Cl", "measurement.type": "solubility (mole fraction)", "experimental.value": 0.0226}

---

- condition.context: in 1-methoxy-2-propanol, 296 K

{"record.smiles": "COc1cc([N+](=O)[O-])c(OC)cc1Cl", "solubility (mole fraction)": 0.00428}

---

- condition.context: in 1-methoxy-2-propanol, 302.6 K

{"record.smiles": "COc1cc(Cl)c(OC)cc1N", "solubility (mole fraction)": 0.0536}

---

- condition.context: in diethylene glycol, 316.5 K
measurement.type: solubility (mole fraction)

{"record.smiles": "COc1cc(Cl)c(OC)cc1N", "measurement.type": "solubility (mole fraction)", "experimental.value": 0.0512}

---

- condition.context: in 1-methoxy-2-propanol, 300.3 K

{"record.smiles": "COc1cc([N+](=O)[O-])c(OC)cc1Cl", "solubility (mole fraction)": 0.00466}

---

- condition.context: in 2-methoxyethanol, 303.1 K

{"record.smiles": "COc1cc([N+](=O)[O-])c(OC)cc1Cl", "solubility (mole fraction)": 0.0119}

---

- condition.context: in 1-methoxy-2-propanol, 310.4 K
measurement.type: solubility (mole fraction)

{"record.smiles": "COc1ccc(OC)c(N)c1", "measurement.type": "solubility (mole fraction)", "experimental.value": 0.211}

---

- condition.context: in 2-ethoxyethanol, 310.9 K
measurement.type: solubility (mole fraction)

{"record.smiles": "COc1cc(Cl)c(OC)cc1N", "experimental.value": 0.0785}

---

- condition.context: in 2-methoxyethanol, 283.2 K

{"record.smiles": "COc1cc([N+](=O)[O-])c(OC)cc1Cl", "solubility (mole fraction)": 0.00622}

---

- condition.context: in 1-methoxy-2-propanol, 322.9 K
measurement.type: solubility (mole fraction)

{"record.smiles": "COc1ccc(OC)c(N)c1", "experimental.value": 0.323}

---

- condition.context: in 1-methoxy-2-propanol, 277.4 K
measurement.type: solubility (mole fraction)

{"record.smiles": "COc1cc(Cl)c(OC)cc1N", "experimental.value": 0.0208}

---

- condition.context: in 1-methoxy-2-propanol, 285.9 K
measurement.type: solubility (mole fraction)

{"record.smiles": "COc1ccc(OC)c(N)c1", "measurement.type": "solubility (mole fraction)", "experimental.value": 0.0382}

---

- condition.context: in diethylene glycol, 276.7 K
measurement.type: solubility (mole fraction)

{"record.smiles": "COc1cc(Cl)c(OC)cc1N", "experimental.value": 0.0167}
{"record.smiles": "COc1ccc(OC)c(N)c1", "experimental.value": 0.00015}

---

- condition.context: in 1-methoxy-2-propanol, 279.7 K

{"record.smiles": "COc1ccc(OC)c(N)c1", "solubility (mole fraction)": 0.0255}

---

- condition.context: in 2-methoxyethanol, 276.4 K
measurement.type: solubility (mole fraction)

{"record.smiles": "COc1ccc(OC)c(N)c1", "experimental.value": 0.0331}

---

- condition.context: in diethylene glycol, 286.5 K

{"record.smiles": "COc1cc([N+](=O)[O-])c(OC)cc1Cl", "solubility (mole fraction)": 0.000275}

---

- condition.context: in 2-methoxyethanol, 309.2 K

{"record.smiles": "COc1ccc(OC)c(N)c1", "solubility (mole fraction)": 0.217}

---

- condition.context: in 2-ethoxyethanol, 292.2 K

{"record.smiles": "COc1ccc(OC)c(N)c1", "solubility (mole fraction)": 0.0635}

---

- condition.context: in 2-ethoxyethanol, 304.7 K
measurement.type: solubility (mole fraction)

{"record.smiles": "COc1ccc(OC)c(N)c1", "measurement.type": "solubility (mole fraction)", "experimental.value": 0.165}

---

- condition.context: in diethylene glycol, 303.5 K

{"record.smiles": "COc1ccc(OC)c(N)c1", "solubility (mole fraction)": 0.00532}

---

- condition.context: in 2-ethoxyethanol, 297.3 K

{"record.smiles": "COc1cc([N+](=O)[O-])c(OC)cc1Cl", "solubility (mole fraction)": 0.00389}

---

- condition.context: in 2-ethoxyethanol, 282.9 K

{"record.smiles": "COc1ccc(OC)c(N)c1", "solubility (mole fraction)": 0.029}

---

- condition.context: in 2-ethoxyethanol, 313 K

{"record.smiles": "COc1ccc(OC)c(N)c1", "solubility (mole fraction)": 0.231}

---

# key: entry, value: solubility (mole fraction)
- condition.context: in diethylene glycol, 280.9 K

{"record.smiles": "COc1ccc(OC)c(N)c1", "solubility (mole fraction)": 0.000379}
{"record.smiles": "COc1cc(Cl)c(OC)cc1N", "solubility (mole fraction)": 0.0188}

---

- condition.context: in diethylene glycol, 285 K

{"record.smiles": "COc1ccc(OC)c(N)c1", "solubility (mole fraction)": 0.000611}
